target: KRAS (WT) (Homo sapiens); construct: Biotinylated KRAS protein amino acids 1-169 (produced at Erasca); made in house; test: In-vitro RAS-RAF binding assay (RRB), HTRF/FRET; format: biochemical; conditions: Table 1; read-out: Inhibition of RAS-RAF Binding (in-vitro) KRAS (WT) IC50
Sequence (P01116 1-169 isoform P01116-2): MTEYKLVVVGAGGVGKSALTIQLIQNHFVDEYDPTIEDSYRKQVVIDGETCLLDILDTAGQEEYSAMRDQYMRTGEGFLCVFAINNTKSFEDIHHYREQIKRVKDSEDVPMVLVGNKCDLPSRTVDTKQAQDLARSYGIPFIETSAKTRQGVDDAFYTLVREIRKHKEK
For each record, write down the corresponding IC50.
Numbers only, in nM.

Recorded results for 5 compounds are shown here.
Item: C#Cc1c(F)ccc2cc(O)cc(-c3ncc4c(N5CC6CCC(C5)N6)nc(OC[C@@H]5CCCN5CCCOCCC(=O)N[C@H](C(=O)N5C[C@H](O)C[C@H]5C(=O)N[C@@H](C)c5ccc(-c6c(F)cccc6F)cc5)C(C)(C)C)nc4c3F)c12 Test system: KRAS (WT) (Homo sapiens) Read-out: IC50 Value: ?
41.9

Would you mind doing Cc1ncsc1-c1ccc([C@H](C)NC(=O)[C@@H]2C[C@@H](O)CN2C(=O)[C@@H](NC(=O)CCOCCCN2CCC[C@H]2COc2nc(N3CC4CCC(C3)N4)c3cc(Cl)c(-c4ccc(F)c5sc(N)nc45)c(F)c3n2)C(C)(C)C)cc1 as well?
134

Would you mind doing Cc1cc(N)nc(-c2c(Cl)cc3c(N4CC5CCC(C4)N5)nc(OC[C@@H]4CCCN4CCCOCCC(=O)N[C@H](C(=O)N4C[C@H](O)C[C@H]4C(=O)N[C@@H](C)c4ccc(-c5scnc5C)cc4)C(C)(C)C)nc3c2F)c1C(F)(F)F as well?
799

Would you mind doing Cc1ncsc1-c1ccc([C@H](C)NC(=O)[C@@H]2C[C@@H](O)CN2C(=O)[C@@H](NC(=O)CCOCCCN2CCC[C@H]2COc2nc(N3CC4CCC(C3)N4)c3cnc(-c4cc(O)cc5cccc(F)c45)c(F)c3n2)C(C)(C)C)cc1 as well?
126

Would you mind doing C[C@H](NC(=O)[C@@H]1C[C@@H](O)CN1C(=O)[C@@H](NC(=O)CCOCCCN1CCCC1COc1nc(N2CC3CCC(C2)N3)c2cc(Cl)c(-c3ccc(F)c4sc(N)c(C#N)c34)c(F)c2n1)C(C)(C)C)c1ccc(-c2c(F)cccc2F)cc1 (stereo partly shown) as well?
86.8

For each listed entry, give its IC50.
1. Cc1ncsc1-c1ccc([C@H](C)NC(=O)[C@@H]2C[C@@H](O)CN2C(=O)[C@@H](NC(=O)CCCCN2CCC[C@H]2COc2nc(N3CC4CCC(C3)N4)c3cc(Cl)c(-c4ccc(F)c5sc(N)nc45)c(F)c3n2)C(C)(C)C)cc1
2. C#Cc1c(F)ccc2cc(O)cc(-c3ncc4c(N5CC6CCC(C5)N6)nc(OC[C@@H]5CCCN5CCCOCCC(=O)N[C@H](C(=O)N5C[C@H](O)C[C@H]5C(=O)N[C@@H](C)c5ccc(-c6scnc6C)cc5)C(C)(C)C)nc4c3F)c12
3. Cc1cc(N)nc(-c2c(Cl)cc3c(N4CC5CCC(C4)N5)nc(OC[C@@H]4CCCN4CCCCCCCN4CCC(c5cc(F)cc6c5CN(C5CCC(=O)NC5=O)C6=O)CC4)nc3c2F)c1C(F)(F)F (stereo partly shown)
4. Cc1ncsc1-c1ccc([C@H](C)NC(=O)[C@@H]2C[C@@H](O)CN2C(=O)[C@@H](NC(=O)CCOCCCN2CCCC2COc2nc(N3CC4CCC(C3)N4)c3cc(Cl)c(-c4ccc(F)c5sc(N)c(C#N)c45)c(F)c3n2)C(C)(C)C)cc1 (stereo partly shown)
5. Cc1cc(N)nc(-c2c(Cl)cc3c(N4CC5CCC(C4)N5)nc(OC[C@@H]4CCCN4CCCOCCC(=O)N[C@H](C(=O)N4C[C@H](O)C[C@H]4C(=O)NCc4ccc(-c5scnc5C)cc4)C(C)(C)C)nc3c2F)c1C(F)(F)F

448
49
2440
51
4250
